Quick list: %Inh per entry.
Test system: DYRK2
Details: concentration: 1 μM,replicates: in singlicate; n = 1;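 further: KINOMEscan kinase panel screen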
Hi! Could you send only the number? It should be in %, unit omitted.

Give the reported %Inh for this compound. NC(=O)c1cc(-c2ccccc2)cc2c(C3CCNCC3)c[nH]c12
23

Give the reported %Inh for this compound. CNC(=O)c1ccccc1Sc1ccc2c(/C=C/c3ccccn3)n[nH]c2c1
0

Give the reported %Inh for this compound. C=CC(=O)Nc1cc2c(Nc3ccc(F)c(Cl)c3)ncnc2cc1OCCCN1CCOCC1
17

* * *

Tested on: S6K1
Conditions: concentration: 1 μM,replicates: in singlicate; n = 1
Class key for %Inh values: range 1: < 1%; range 2: ≥ 1% and < 30%; range 3: ≥ 30%

Class (by measured %Inh) for C[C@H]1Oc2cc(cnc2N)-c2c(nn(C)c2C#N)CN(C)C(=O)c2ccc(F)cc21
range 1

Class (by measured %Inh) for C=CC(=O)Nc1cc2c(Nc3ccc(F)c(Cl)c3)ncnc2cc1OCCCN1CCOCC1 [GW781483]
range 2

Class (by measured %Inh) for CNC(=O)c1ccccc1Sc1ccc2c(/C=C/c3ccccn3)n[nH]c2c1
range 2

Class (by measured %Inh) for Cc1cc2cn[nH]c2cc1-c1cccc2c(N)c(C(N)=O)nnc12
range 2

Class (by measured %Inh) for O=C(NCCNc1ccnc(NCc2ccc(F)cc2)n1)c1cc2ccccc2s1 [GSK1379944]
range 2

Class (by measured %Inh) for Cc1ccc(-n2nc(C(C)(C)C)cc2NC(=O)Nc2ccc(OCCN3CCOCC3)c3ccccc23)cc1 [GW839464]
range 1

Class (by measured %Inh) for Cc1occc1-c1nc(N)c(OC[C@@H](N)Cc2c[nH]c3ccccc23)cc1-c1cc2c(C)n[nH]c2cn1 [GSK1660450]
range 3

Class (by measured %Inh) for Cl.Cl.NC[C@H](Cc1ccc(C(F)(F)F)cc1)NC(=O)c1cc(Br)c(-c2ccnc3[nH]ccc23)s1 [GSK1487252]
range 3

Class (by measured %Inh) for NC(=O)c1cc(-c2ccccc2)cc2c(C3CCNCC3)c[nH]c12 [GSK301362]
range 1

Class (by measured %Inh) for COc1ccc(C[C@@H](CN)NC(=O)c2cc(Br)c(-c3ccnc4[nH]ccc34)s2)cc1.Cl.Cl [GSK1389063]
range 3

* * *

Quick list: %Inh per entry.
System: SGK2
Conditions: concentration: 1 μM,replicates: in singlicate; n = 1
Hi! Could you send only the number? It should be in %, unit omitted.

These recorded examples may help you get a feel for the data.
mol=Cc1ccc2c(-c3ccncc3)c(-c3ccc(F)cc3)nn2c1.Cl experimental_readout=%Inh measured_value=0
mol=Cc1cc2cn[nH]c2cc1-c1cccc2c(N)c(C(N)=O)nnc12 experimental_readout=%Inh measured_value=26
mol=NC(=O)c1cc(-c2ccccc2)cc2c(C3CCNCC3)c[nH]c12 experimental_readout=%Inh measured_value=5
mol=Nc1nc(Nc2ccccc2)cc(-c2ccc3c(N)n[nH]c3c2)n1 experimental_readout=%Inh measured_value=0
mol=CCn1c(-c2nonc2N)nc2c(C#CC(C)(C)O)nc(OCCN)cc21.Cl.Cl experimental_readout=%Inh measured_value=17
mol=O=C(NCCCN1CCOC1=O)c1cnc(NCc2cc(Cl)ccc2Cl)nc1NC1CCCC1 experimental_readout=%Inh measured_value=0

Now look at this one.
Give the reported %Inh for this compound. C[C@@H](Oc1cc(-c2cnn(C3CCNCC3)c2)cnc1N)c1c(Cl)ccc(F)c1Cl
0
